From: patent US20150140169

# ASSAY TARGET: T1, alpha-s1 casein from Bos taurus
# T1 chain: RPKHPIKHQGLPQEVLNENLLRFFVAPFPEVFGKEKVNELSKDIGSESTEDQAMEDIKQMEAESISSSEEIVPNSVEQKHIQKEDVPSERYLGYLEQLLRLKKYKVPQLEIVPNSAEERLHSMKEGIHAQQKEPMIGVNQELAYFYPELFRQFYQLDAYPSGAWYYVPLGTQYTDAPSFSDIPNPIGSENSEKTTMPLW
Examples of proteins with documented small, 24 hours, 11° C. follow.

PROTEIN: bovine chymosin B variant #62 (V223Q) (protein) GEVASVPLTNYLDSQYFGKIYLGTPPQEFTVLFDTGSSDFWVPSIYCKSNACKNHQRFDPRKSSTFQNLGKPLSIHYGTGSMQGILGYDTVTVSNIVDIQQTVGLSTQEPGDVFTYAEFDGILGMAYPSLASEYSIPVFDNMMNRHLVAQDLFSVYMDRNGQESMLTLGAIDPSYYTGSLHWVPVTVQQYWQFTVDSVTISGVVVACEGGCQAILDTGTSKLQGPSSDILNIQQAIGATQNQYGEFDIDCDNLSYMPTVVFEINGKMYPLTPSAYTSQDQGFCTSGFQSENHSQKWILGDVFIREYYSVFDRANNLVGLAKAI
UNITS OF MEASURE: Volume
small, 24 hours, 11° C.: 4.1e+06
//
PROTEIN: Maxiren (recombinant wild-type calf chymosin B) (protein) GEVASVPLTNYLDSQYFGKIYLGTPPQEFTVLFDTGSSDFWVPSIYCKSNACKNHQRFDPRKSSTFQNLGKPLSIHYGTGSMQGILGYDTVTVSNIVDIQQTVGLSTQEPGDVFTYAEFDGILGMAYPSLASEYSIPVFDNMMNRHLVAQDLFSVYMDRNGQESMLTLGAIDPSYYTGSLHWVPVTVQQYWQFTVDSVTISGVVVACEGGCQAILDTGTSKLVGPSSDILNIQQAIGATQNQYGEFDIDCDNLSYMPTVVFEINGKMYPLTPSAYTSQDQGFCTSGFQSENHSQKWILGDVFIREYYSVFDRANNLVGLAKAI
UNITS OF MEASURE: Volume
small, 24 hours, 11° C.: 6.7e+06
//
PROTEIN: Chymax M (recombinant camel chymosin) (protein) GKVAREPLTSYLDSQYFGKIYIGTPPQEFTVVFDTGSSDLWVPSIYCKSNVCKNHHRFDPRKSSTFRNLGKPLSIHYGTGSMEGFLGYDTVTVSNIVDPNQTVGLSTEQPGEVFTYSEFDGILGLAYPSLASEYSVPVFDNMMDRHLVARDLFSVYMDRNGQGSMLTLGAIDPSYYTGSLHWVPVTLQQYWQFTVDSVTINGVAVACVGGCQAILDTGTSVLFGPSSDILKIQMAIGATENRYGEFDVNCGNLRSMPTVVFEINGRDYPLSPSAYTSKDQGFCTSGFQGDNNSELWILGDVFIREYYSVFDRANNRVGLAKAI
UNITS OF MEASURE: Volume
small, 24 hours, 11° C.: 1.1e+07
//
PROTEIN: bovine chymosin B variant #71 (A51V, K221V) (protein) GEVASVPLTNYLDSQYFGKIYLGTPPQEFTVLFDTGSSDFWVPSIYCKSNVCKNHQRFDPRKSSTFQNLGKPLSIHYGTGSMQGILGYDTVTVSNIVDIQQTVGLSTQEPGDVFTYAEFDGILGMAYPSLASEYSIPVFDNMMNRHLVAQDLFSVYMDRNGQESMLTLGAIDPSYYTGSLHWVPVTVQQYWQFTVDSVTISGVVVACEGGCQAILDTGTSVLVGPSSDILNIQQAIGATQNQYGEFDIDCDNLSYMPTVVFEINGKMYPLTPSAYTSQDQGFCTSGFQSENHSQKWILGDVFIREYYSVFDRANNLVGLAKAI
UNITS OF MEASURE: Volume
small, 24 hours, 11° C.: 0
